Kindly state TGI for each of the entries shown.
Test system: HT29 colon
Experiment: NCI tumour cell line growth inhibition, 48 h

Asked: Request body: readout TGI, system HT29 colon, query "Oc1c(Cl)c(Cl)c(O)c2c1CCCC2" . Return the value.
Given back: 44.6 µM

Asked: Try this compound next: "C=C1c2ccoc2C[C@H]2[C@H]1CC[C@@]1(O)[C@@](C)(C(=O)OC)CCC[C@]21C"
Given back: 81.6 µM

Asked: Try this compound next: "O=[N+]([O-])c1ccc(N=Nc2ccc(O)c3ccccc23)cc1"
Given back: > 100 µM

Asked: Try this compound next: CC1=C(CCC(C)NCc2ccc(OCCCN3CCCCC3)cc2)C(C)(C)CCC1 (configuration not stated)
Given back: 1.38 µM

Asked: Try this compound next: "Nc1c(C(=O)c2cccc(C#CCO)c2)cnn1-c1ccc(F)cc1"
Given back: > 25 µM

Asked: Try this compound next: "CC(=O)[CH-]C(=O)c1ccccc1.CC(=O)[CH-]C(=O)c1ccccc1.CC(=O)[CH-]C(=O)c1ccccc1.[In+3]"
Given back: > 100 µM

Asked: Try this compound next: "CN1CCc2[nH]nc(-c3n[nH]c4c3CN(C)CC4)c2C1"
Given back: > 100 µM

Asked: Try this compound next: "Nc1nc(-c2ccco2)cc(-c2ccc(CO)o2)n1"
Given back: > 100 µM

Asked: Try this compound next: CN(C)CC1CCC2=C(C1=O)C(c1ccc(Cl)c(Cl)c1)C1=C(CCC(CN(C)C)C1=O)O2 (configuration not stated)
Given back: 22.4 µM

Asked: Try this compound next: "O=S(=O)(/C=C/CS(=O)(=O)c1ccccc1)c1ccccc1"
Given back: > 100 µM

Asked: Try this compound next: "ON=C(CC(O)(C(F)(F)Cl)C(F)(F)Cl)CC(O)(C(F)(F)Cl)C(F)(F)Cl"
Given back: > 10 µM

Asked: Try this compound next: "Cc1ccc(N(C)S(=O)(=O)c2ccccc2[N+](=O)[O-])cc1"
Given back: > 100 µM

Asked: Try this compound next: "O=C(O)c1nc(-c2ccc(Cl)c(Cl)c2)nc2ccc(Cl)cc12"
Given back: > 100 µM

Asked: Try this compound next: "CCOC(=O)NN(C(=O)OCC)c1c(C)cc(C)cc1C"
Given back: > 100 µM

Asked: Try this compound next: O=C(O)C(CS)NCc1c2ccccc2nc2ccccc12 (configuration not stated)
Given back: > 100 µM

Asked: Try this compound next: "O=[N+]([O-])c1cc(Cl)cnc1Br"
Given back: 8.51 µM

Asked: Try this compound next: "CC(=O)Nc1cccc(N=NN(C)C)c1"
Given back: > 100 µM

Asked: Try this compound next: "Nc1c(C(=O)c2cccc(-c3cccnc3)c2)cnn1-c1ccc(F)cc1F"
Given back: > 25 µM

Asked: Try this compound next: "CC1=C(C)SC(=C2Sc3nc(O)[nH]c(=O)c3S2)S1"
Given back: > 100 µM

Asked: Try this compound next: "Cc1cn2c(/C=C3/C(=O)Nc4ccc(O)cc43)c(C)nc2s1"
Given back: > 100 µM

Asked: Try this compound next: "O=C(N/N=C(/COc1ccccc1)N=Cc1cccnc1)c1ccncc1"
Given back: > 100 µM

Asked: Try this compound next: "O=c1oc2cc(O)ccc2c(O)c1Cc1c(O)c2ccc(O)cc2oc1=O"
Given back: > 100 µM

Asked: Try this compound next: "CCOC(=O)c1cccc(NC(=O)CI)c1"
Given back: 0.646 µM

Asked: Try this compound next: "COC(=O)c1cc2ccccc2c2c3c(ccc12)OCO3"
Given back: > 1000 µM

Asked: Try this compound next: "Cc1ccc(C(=O)NC2CCC2)cc1-c1ccc(C(=O)NCC2CC2)cc1"
Given back: > 25 µM

Asked: Try this compound next: "O=C(c1ccccc1)N1C(=S)N(c2ccccn2)C(=Nc2ccccc2)C1=Nc1ccccc1"
Given back: > 100 µM

Asked: Try this compound next: "COc1ccc(-c2oc3c(OC)c(OC)cc(O)c3c(=O)c2OC)cc1"
Given back: > 100 µM

----------
System: ACHN renal
Assay: NCI tumour cell line growth inhibition, 48 h
Kindly state TGI for each of the entries shown.
Give just the number in µM; leave the unit off.

Asked: Request body: readout TGI, system ACHN renal, query "CCOc1cc2c(c(OCC)c1O)CC[C@@H]1[C@@H]2CC[C@]2(C)[C@@H](O)CC[C@@H]12" . Return the value.
Given back: 57.4

Asked: Try this compound next: "CCSc1nc(SCC)c2c(-c3ccc(OC)c(OC)c3)c(C#N)c(SCC)nc2n1"
Given back: 38

----------
Tested on: SK-MEL-5 melanoma
Test: NCI tumour cell line growth inhibition, 48 h; in the data active = GI50 below about 0.43 µM; inactive = the rest
Choose one outcome from this list and give only that: yes (active), no (inactive)

Asked: Please state the recorded outcome for this molecule: "Nc1c(C(=O)c2cccc(C#CCO)c2)cnn1-c1ccc(F)cc1"
Given back: no

Asked: Try this molecule next: "Cn1cc(-c2csc(-c3cn(CCCN4CCCCC4)c4ccccc34)n2)c2cccnc21"
Given back: no

Asked: Try this molecule next: "COc1cc(OC)c(C(=O)/C=C/c2cccc(C#N)c2)c(OC)c1"
Given back: no

Asked: Try this molecule next: "C[CH2][Sn]([CH2]C)([O]C(=O)c1ccccc1F)[O][Sn]([CH2]C)([CH2]C)[O]C(=O)c1ccccc1F"
Given back: no

Asked: Try this molecule next: "O=S(=O)(c1cccc2c(I)cccc12)N1CCCNCC1"
Given back: no

Asked: Try this molecule next: "COc1ccc(CC(=O)c2ccc(O)cc2O)cc1"
Given back: no

Asked: Try this molecule next: "Nc1ccccc1C#C/C=C\C#Cc1cccc(O)c1"
Given back: no

Asked: Try this molecule next: CC(C)CCNCC(O)Cn1c2ccccc2c2ccccc21 (stereo not given)
Given back: no

Asked: Try this molecule next: CC1=C(CCC(C)NCc2ccc(OCCCN3CCCCC3)cc2)C(C)(C)CCC1 (stereo not given)
Given back: no

Asked: Try this molecule next: "Cc1nn(C)c(COc2ccc(N3CCN(S(=O)(=O)N(C)C)CC3)cc2)c1-c1cccc2c(CCCOc3cccc4ccccc34)c(C(=O)O)n(CCN3CCOCC3)c12"
Given back: no

Asked: Try this molecule next: "Cc1[nH]c(=O)nc(Nc2ccc(Cl)cc2)c1C(=O)N1CCN(CCO)CC1"
Given back: no

Asked: Try this molecule next: "Cc1ccc(C(=O)NC2CCC2)cc1-c1ccc(C(=O)NCC2CC2)cc1"
Given back: no

Asked: Try this molecule next: "CC(=O)[O][Sn]([CH2]c1ccccc1)([CH2]c1ccccc1)[CH2]c1ccccc1"
Given back: no

Asked: Try this molecule next: "COc1cc(OC)c2[nH]c3c(O)c(-c4c(C)cc5c([nH]c6c(OC)cc(OC)cc65)c4O)c(C)cc3c2c1"
Given back: no

Asked: Try this molecule next: "Cc1[nH]c2ccc(F)cc2c1-c1nc2c3cccnc3c3ncccc3c2[nH]1"
Given back: yes

----------
Test system: LOX IMVI melanoma
Assay: NCI tumour cell line growth inhibition, 48 h
Kindly state TGI for each of the entries shown.
Give just the number in µM; leave the unit off.

Asked: Request the reported TGI associated with CCC[CH2][Sn]1([CH2]CCC)[O]C2C(CO)OC(n3ccc(N)nc3=O)C2[O]1 (stereo not drawn)
Given back: 1.65

Asked: Try this compound next: "Oc1c(Cl)c(Cl)c(O)c2c1CCCC2"
Given back: 78.6

Asked: Try this compound next: "O=C(c1cc2c(c3ccccc13)NC1(CCCCC1)N=C2C(F)(F)F)C(F)(F)F"
Given back: 12.1

Asked: Try this compound next: CC(C)CCNCC(O)Cn1c2ccccc2c2ccccc21 (stereo not drawn)
Given back: 18.5

Asked: Try this compound next: CCCCCCCCCCCCCCCCCCOCC(O)COP(=O)(O)OCC1OC(n2ccc(N)nc2=O)C(O)C1O (stereo not drawn)
Given back: 31.1

Asked: Try this compound next: "O1[As]2O[As]3O[As]1O[As](O2)O3"
Given back: 2.13

Asked: Try this compound next: CC(Oc1ccc(OCC2CCCCC2)cc1)C(=O)NCc1ccco1 (stereo not drawn)
Given back: 54.3

Asked: Try this compound next: "O=[N+]([O-])c1ccc(N=Nc2ccc(O)c3ccccc23)cc1"
Given back: 13.6

Asked: Try this compound next: COc1ccc(COC2CC(OC)OC(C)C2OC(=O)c2ccccc2)cc1 (stereo not drawn)
Given back: 67.9

Asked: Try this compound next: "O=C1C(SCCO)=C(SCCO)C(=O)N1c1ccc(-c2ccccc2)cc1"
Given back: 8.44

Asked: Try this compound next: "Nc1ccccc1C#C/C=C\C#Cc1cccc(O)c1"
Given back: 10.8

----------
Kindly state GI50 for each of the entries shown.
Tested on: COLO 205 colon
Test: NCI tumour cell line growth inhibition, 48 h

Asked: Request the reported GI50 associated with "Cc1nn(-c2ccc(Cl)cc2)c2nc3c(nc12)C(=O)C(=O)c1ccccc1-3"
Given back: 2.03 µM

Asked: Try this molecule next: "COc1cc([N+](=O)[O-])c(OC)cc1-c1nc2sccn2c1/C=N/N=C(N)N"
Given back: 66 µM

Asked: Try this molecule next: "C=C1c2ccoc2C[C@H]2[C@H]1CC[C@@]1(O)[C@@](C)(C(=O)OC)CCC[C@]21C"
Given back: 20 µM

Asked: Try this molecule next: "Cn1cccc1-c1cc(-c2ccc(Br)cc2)[nH]c(=O)c1C#N"
Given back: > 100 µM

Asked: Try this molecule next: "Cc1[nH]c(=O)nc(Nc2ccc(Cl)cc2)c1C(=O)N1CCN(CCO)CC1"
Given back: > 100 µM

Asked: Try this molecule next: "COC(=N)c1c(N)[n+]([O-])c2ccc(F)cc2[n+]1[O-]"
Given back: 61.7 µM

Asked: Try this molecule next: "NCCN.O=C([O-])CN1CCOCC1.[OH-].[Pt+4]"
Given back: > 100 µM

Asked: Try this molecule next: COC(=O)C1=C(C)NC(C)=C(C(=O)OCC(C)C)C1c1ccccc1[N+](=O)[O-] (stereo not drawn)
Given back: 13.3 µM

Where these numbers come from: PubChem BioAssay (NCI)
